target: full-length MALT1 protein (Strep-MALT1(1-824)-His) (Homo sapiens (Human), UniProt Q9UDY8)
Sequence (Q9UDY8 whole entry): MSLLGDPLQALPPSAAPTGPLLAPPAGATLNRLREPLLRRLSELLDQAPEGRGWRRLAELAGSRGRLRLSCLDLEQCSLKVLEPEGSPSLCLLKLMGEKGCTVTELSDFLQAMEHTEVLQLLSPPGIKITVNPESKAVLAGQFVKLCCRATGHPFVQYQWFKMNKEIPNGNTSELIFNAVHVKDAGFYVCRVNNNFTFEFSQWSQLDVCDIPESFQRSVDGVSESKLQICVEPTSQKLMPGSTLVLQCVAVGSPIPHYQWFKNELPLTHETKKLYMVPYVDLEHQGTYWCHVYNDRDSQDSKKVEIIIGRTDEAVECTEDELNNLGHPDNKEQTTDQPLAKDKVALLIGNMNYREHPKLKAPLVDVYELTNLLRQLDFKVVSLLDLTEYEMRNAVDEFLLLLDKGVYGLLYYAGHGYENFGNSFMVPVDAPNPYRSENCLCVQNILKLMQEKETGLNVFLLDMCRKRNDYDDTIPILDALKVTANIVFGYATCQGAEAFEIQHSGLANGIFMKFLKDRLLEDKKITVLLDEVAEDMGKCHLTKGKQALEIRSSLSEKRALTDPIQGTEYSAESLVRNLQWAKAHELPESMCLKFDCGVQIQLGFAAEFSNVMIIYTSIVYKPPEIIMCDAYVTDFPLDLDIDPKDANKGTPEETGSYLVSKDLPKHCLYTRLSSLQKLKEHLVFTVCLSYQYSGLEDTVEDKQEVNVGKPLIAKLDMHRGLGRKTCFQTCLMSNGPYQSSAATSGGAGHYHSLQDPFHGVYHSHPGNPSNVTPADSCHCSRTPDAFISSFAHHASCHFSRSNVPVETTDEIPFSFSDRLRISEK
Entries whose IC50 is below 90 nM take met; entries at or above 90 nM take not met.

Illustrative cases are given below, each with its answer.
INSERT INTO results (smiles_representation, assigned_category) VALUES
  ('NC(=O)c1nccc2c(-n3ncc(C(=O)Nc4cnc(-n5nccn5)c(Cl)c4)c3C(F)(F)F)cccc12', 'not met'),
  ('O=C(Nc1cnc(-n2nccn2)c(Cl)c1)c1cnn(-c2cccc3nc(F)ccc23)c1C(F)(F)F', 'not met'),
  ('O=C(Nc1cnc(-n2nccn2)c(Cl)c1)c1cnn(-c2cccc3c(=O)[nH]ccc23)c1C(F)(F)F', 'met');

Bench note: check whether `N#Cc1cc(NC(=O)c2cnn(-c3ccc(F)c4ncccc34)c2C(F)(F)F)cnc1-n1nccn1` shows IC50 below 90 nM met

====

target: full-length MALT1 protein (Strep-MALT1(1-824)-His) (Homo sapiens (Human), UniProt Q9UDY8)
Entries whose IC50 is below 100 nM take True; entries at or above 100 nM take False.

INSERT INTO results (smiles_representation, target_or_test_system, assigned_category) VALUES
  ('O=C(Nc1cnc(-n2nccn2)c(Cl)c1)c1cnn(-c2c[nH]c(=O)c3c(F)cccc23)c1C(F)(F)F', 'full-length MALT1 protein (Strep-MALT1(1-824)-His) (Homo sapiens (Human), UniProt Q9UDY8)', 'True');

Bench note: check whether `Cc1cc(-n2nccn2)c(Cl)cc1NC(=O)c1cnn(-c2cncc3c(F)cccc23)c1C(F)(F)F` shows IC50 below 100 nM True

Now give it for `N#Cc1cc(NC(=O)c2cnn(-c3cccc4nc(N)nn34)c2C(F)(F)F)cnc1-n1nccn1` too. False

Now give it for `Cc1cc(NC(=O)c2cnn(-c3cccc4ncccc34)c2C(F)(F)F)ccc1-n1cc(CN)cn1` too. False

Now give it for `O=C(Nc1cnc(-n2nccn2)c(Cl)c1)c1cnn(-c2ccc(F)c3ncccc23)c1C(F)(F)F` too. True

Now give it for `O=C(Nc1cnc(-n2ccnc2)c(Cl)c1)c1cnn(-c2cncc3ccccc23)c1C(F)(F)F` too. False

Now give it for `Cn1ccnc1-c1ncc(NC(=O)c2cnn(-c3cncc4ccccc34)c2C(F)(F)F)cc1Cl` too. False

====

tested on: TMD8 cells; assay: 4-day proliferation assay, TMD8; assay type: cell-based; details: Homo sapiens, 96 h, 4 days incubation, CellTiterGLO, read-out: Anti-proliferation: TMD-8 IC50
Entries whose IC50 is below 5 µM take satisfied; entries at or above 5 µM take not satisfied.

Illustrative cases are given below, each with its answer.
INSERT INTO assay_data (smiles_representation, assigned_category) VALUES
  ('CC(C)Cc1c(C(=O)Nc2cnc(-n3nccn3)c(Cl)c2)cnn1-c1cccc2ncccc12', 'not satisfied'),
  ('N#Cc1cc(NC(=O)c2cnn(-c3cccc4ncsc34)c2C(F)(F)F)cnc1-n1nccn1', 'satisfied'),
  ('Cc1nc(-n2nccn2)c(Cl)cc1NC(=O)c1cnn(-c2cncc3c(F)cccc23)c1C(F)(F)F', 'satisfied');

Bench note: check whether `O=C(Nc1cnc(-c2nnco2)c(Cl)c1)c1cnn(-c2cccc3ncccc23)c1C(F)(F)F` shows IC50 below 5 µM satisfied

Now give it for `N#Cc1cc(NC(=O)c2cnn(-c3cccc4ncccc34)c2C(F)(F)F)ccc1-n1nccn1` too. satisfied

Now give it for `Cc1ncn(-c2ccc(NC(=O)c3cnn(-c4cncc5ccccc45)c3C(F)(F)F)cc2Cl)n1` too. not satisfied
